FYI, the data here is from ChEMBL document CHEMBL3797175.

Test system: 786-0
Assay: Antiproliferative activity against human 786-0 cells after 72 hrs by SRB or MTT assay
Assay type: functional, cell-based
Settings: 786-0, 72 h
pIC50: −log10 of the molar value.
measure name: pIC50

// recorded pIC50 for `Fc1ccc(-c2cnc3nnc(C(F)(F)c4ccc5ncccc5c4)n3n2)cc1` : < 5.00

----------
Experiment: Tmax in Sprague-Dawley rat at 10 mg/kg, po administered as single dose
Format: ADME, organism-based
Settings: in vivo
measure name: Tmax
Could you write the number and then its unit?

1) Fc1ccc(-c2cnc3nnc(C(F)(F)c4ccc5ncccc5c4)n3n2)cc1 : 60 min

// recorded Tmax for `FC(F)(c1ccc2ncccc2c1)c1nnc2ncc(-c3ccco3)nn12` : 25.2 min

// recorded Tmax for `CCCn1cc(-c2cnc3nnc(C(F)(F)c4ccc5ncccc5c4)n3n2)cn1` : 30 min

// recorded Tmax for `Cn1cc(-c2cnc3nnc(C(F)(F)c4ccc5ncccc5c4)n3n2)cn1` : 150 min

----------
Assay: Half life in Sprague-Dawley rat at 10 mg/kg, iv administered as single dose
Format: ADME, organism-based
Conditions: in vivo
measure name: half-life (h)
Give the value in h but do not write h after it.

// recorded half-life for `Cn1cc(-c2cnc3nnc(C(F)(F)c4ccc5ncccc5c4)n3n2)cn1` : 1.14

----------
Experiment: Selectivity ratio of IC50 for human SGC7901 cells to IC50 for human MKN45 cells
Format: ADME, cell-based
Conditions: sgc-7901
measure name: Ratio IC50

// recorded Ratio IC50 for `Fc1ccc(-c2cnc3nnc(C(F)(F)c4ccc5ncccc5c4)n3n2)cc1` : > 10000

----------
Experiment: Antiproliferative activity against human Bel7404 cells after 72 hrs by SRB or MTT assay
Format: functional, cell-based
Settings: BEL-7404, 72 h
pIC50: −log10 of the molar value.
measure name: pIC50

// recorded pIC50 for `Fc1ccc(-c2cnc3nnc(C(F)(F)c4ccc5ncccc5c4)n3n2)cc1` : < 5.00

----------
Experiment: Selectivity ratio of IC50 for human MDA-MB-231 cells to IC50 for human EBC1 cells
Type: ADME, cell-based
measure name: Ratio IC50

// recorded Ratio IC50 for `Fc1ccc(-c2cnc3nnc(C(F)(F)c4ccc5ncccc5c4)n3n2)cc1` : > 10000

----------
Target: Tyrosine-protein kinase Mer (Homo sapiens)
Sequence (Q12866 whole entry): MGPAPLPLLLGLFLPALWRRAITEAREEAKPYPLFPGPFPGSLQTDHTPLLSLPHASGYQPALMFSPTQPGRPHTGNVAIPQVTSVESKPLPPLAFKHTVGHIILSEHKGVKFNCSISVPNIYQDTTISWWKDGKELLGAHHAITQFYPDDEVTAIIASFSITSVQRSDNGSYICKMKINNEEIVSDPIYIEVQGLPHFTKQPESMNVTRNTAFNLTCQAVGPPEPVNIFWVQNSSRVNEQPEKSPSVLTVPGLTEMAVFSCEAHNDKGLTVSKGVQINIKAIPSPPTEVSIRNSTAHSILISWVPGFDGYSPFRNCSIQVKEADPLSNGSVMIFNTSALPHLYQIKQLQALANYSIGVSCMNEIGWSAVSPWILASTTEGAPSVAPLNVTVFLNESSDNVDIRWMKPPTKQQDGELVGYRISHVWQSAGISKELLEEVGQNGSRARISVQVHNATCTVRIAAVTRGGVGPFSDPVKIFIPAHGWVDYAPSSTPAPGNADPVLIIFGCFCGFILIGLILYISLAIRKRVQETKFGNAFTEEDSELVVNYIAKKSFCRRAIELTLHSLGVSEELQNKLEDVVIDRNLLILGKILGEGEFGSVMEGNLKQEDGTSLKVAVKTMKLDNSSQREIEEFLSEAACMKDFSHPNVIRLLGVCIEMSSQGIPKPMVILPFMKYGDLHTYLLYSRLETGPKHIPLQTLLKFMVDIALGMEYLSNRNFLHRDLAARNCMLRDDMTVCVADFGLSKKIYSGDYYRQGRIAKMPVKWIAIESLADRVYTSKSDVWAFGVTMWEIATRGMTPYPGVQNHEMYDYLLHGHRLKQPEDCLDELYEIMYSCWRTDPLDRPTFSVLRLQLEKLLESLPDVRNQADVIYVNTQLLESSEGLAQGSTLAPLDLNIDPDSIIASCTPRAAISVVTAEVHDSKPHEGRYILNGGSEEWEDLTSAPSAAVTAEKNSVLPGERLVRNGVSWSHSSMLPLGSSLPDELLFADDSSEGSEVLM
Assay: Inhibition of recombinant c-Mer (unknown origin) using poly (Glu, Tyr) 4:1 as substrate incubated for 60 mins by ELISA
measure name: IC50

// recorded IC50 for `Fc1ccc(-c2cnc3nnc(C(F)(F)c4ccc5ncccc5c4)n3n2)cc1` : > 1 µM

----------
Experiment: Selectivity ratio of IC50 for human SGC7901 cells to IC50 for mouse BAF3 cells expressing TPR-MET
Format: ADME, cell-based
measure name: Ratio IC50

// recorded Ratio IC50 for `Fc1ccc(-c2cnc3nnc(C(F)(F)c4ccc5ncccc5c4)n3n2)cc1` : > 10000

----------
Target: TPR/MET fusion protein (Mus musculus) (UniProt P16056+F6ZDS4)
Sequence (F6ZDS4 whole entry partner, the tested form may be a part): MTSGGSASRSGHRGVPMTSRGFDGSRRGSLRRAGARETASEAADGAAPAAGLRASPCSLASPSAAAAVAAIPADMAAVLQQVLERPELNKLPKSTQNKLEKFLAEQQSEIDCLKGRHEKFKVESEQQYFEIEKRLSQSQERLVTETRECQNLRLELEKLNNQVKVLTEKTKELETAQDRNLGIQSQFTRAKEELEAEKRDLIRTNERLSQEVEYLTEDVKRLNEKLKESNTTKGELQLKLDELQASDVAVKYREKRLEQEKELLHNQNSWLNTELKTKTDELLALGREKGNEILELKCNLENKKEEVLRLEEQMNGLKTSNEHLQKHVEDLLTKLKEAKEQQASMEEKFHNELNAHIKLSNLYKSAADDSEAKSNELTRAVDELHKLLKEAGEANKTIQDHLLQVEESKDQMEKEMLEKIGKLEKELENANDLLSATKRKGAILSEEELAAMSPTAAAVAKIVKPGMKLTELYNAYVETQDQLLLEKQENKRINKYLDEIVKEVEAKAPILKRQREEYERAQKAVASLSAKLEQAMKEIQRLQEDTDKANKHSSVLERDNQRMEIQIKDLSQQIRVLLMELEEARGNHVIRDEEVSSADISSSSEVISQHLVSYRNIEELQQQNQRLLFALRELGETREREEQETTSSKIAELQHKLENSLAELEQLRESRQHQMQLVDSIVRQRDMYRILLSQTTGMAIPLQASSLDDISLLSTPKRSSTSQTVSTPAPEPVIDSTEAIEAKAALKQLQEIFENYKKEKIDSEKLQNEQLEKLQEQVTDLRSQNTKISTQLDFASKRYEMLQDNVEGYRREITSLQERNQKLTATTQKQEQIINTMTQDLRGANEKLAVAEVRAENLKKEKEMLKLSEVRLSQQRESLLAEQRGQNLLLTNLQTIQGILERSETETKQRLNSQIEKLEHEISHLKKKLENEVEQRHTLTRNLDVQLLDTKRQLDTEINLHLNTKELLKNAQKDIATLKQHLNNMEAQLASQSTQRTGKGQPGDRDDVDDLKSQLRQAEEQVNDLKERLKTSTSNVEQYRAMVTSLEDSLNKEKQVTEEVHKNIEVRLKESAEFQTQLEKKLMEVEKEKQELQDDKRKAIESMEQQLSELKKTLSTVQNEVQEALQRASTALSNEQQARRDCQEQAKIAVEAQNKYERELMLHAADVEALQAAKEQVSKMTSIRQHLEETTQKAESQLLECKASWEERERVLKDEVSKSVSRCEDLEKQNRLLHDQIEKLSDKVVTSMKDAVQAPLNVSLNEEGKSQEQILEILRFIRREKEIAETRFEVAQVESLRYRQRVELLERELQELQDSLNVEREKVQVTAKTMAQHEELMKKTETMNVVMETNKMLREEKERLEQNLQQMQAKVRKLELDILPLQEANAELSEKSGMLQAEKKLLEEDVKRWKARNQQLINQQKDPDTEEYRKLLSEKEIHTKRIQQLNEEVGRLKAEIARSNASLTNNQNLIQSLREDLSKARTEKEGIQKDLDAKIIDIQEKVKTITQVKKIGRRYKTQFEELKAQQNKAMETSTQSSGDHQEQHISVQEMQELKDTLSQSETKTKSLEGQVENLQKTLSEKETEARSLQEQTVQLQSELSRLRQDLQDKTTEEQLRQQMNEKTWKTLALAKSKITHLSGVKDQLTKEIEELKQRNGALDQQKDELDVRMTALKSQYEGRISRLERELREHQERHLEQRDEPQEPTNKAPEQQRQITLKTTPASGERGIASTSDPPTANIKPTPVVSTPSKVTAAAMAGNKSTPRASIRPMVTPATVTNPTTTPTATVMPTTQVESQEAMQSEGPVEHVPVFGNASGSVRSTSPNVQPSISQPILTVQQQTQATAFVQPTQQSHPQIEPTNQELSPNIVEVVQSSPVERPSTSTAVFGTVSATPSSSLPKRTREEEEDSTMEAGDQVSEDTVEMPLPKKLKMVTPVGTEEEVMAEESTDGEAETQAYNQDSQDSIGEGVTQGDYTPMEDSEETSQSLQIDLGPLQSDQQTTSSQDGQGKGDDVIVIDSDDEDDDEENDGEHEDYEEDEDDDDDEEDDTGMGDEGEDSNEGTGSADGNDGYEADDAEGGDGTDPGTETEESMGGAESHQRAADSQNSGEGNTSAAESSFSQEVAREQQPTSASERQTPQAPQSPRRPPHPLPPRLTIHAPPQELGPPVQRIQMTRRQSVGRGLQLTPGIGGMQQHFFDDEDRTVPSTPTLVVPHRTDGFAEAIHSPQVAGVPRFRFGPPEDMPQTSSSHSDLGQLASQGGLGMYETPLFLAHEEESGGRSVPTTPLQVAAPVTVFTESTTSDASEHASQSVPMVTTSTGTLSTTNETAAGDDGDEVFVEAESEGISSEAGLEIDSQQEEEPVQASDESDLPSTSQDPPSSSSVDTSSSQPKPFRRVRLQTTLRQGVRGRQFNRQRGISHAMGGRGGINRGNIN
Sequence (P16056 25-1379 limits assumed): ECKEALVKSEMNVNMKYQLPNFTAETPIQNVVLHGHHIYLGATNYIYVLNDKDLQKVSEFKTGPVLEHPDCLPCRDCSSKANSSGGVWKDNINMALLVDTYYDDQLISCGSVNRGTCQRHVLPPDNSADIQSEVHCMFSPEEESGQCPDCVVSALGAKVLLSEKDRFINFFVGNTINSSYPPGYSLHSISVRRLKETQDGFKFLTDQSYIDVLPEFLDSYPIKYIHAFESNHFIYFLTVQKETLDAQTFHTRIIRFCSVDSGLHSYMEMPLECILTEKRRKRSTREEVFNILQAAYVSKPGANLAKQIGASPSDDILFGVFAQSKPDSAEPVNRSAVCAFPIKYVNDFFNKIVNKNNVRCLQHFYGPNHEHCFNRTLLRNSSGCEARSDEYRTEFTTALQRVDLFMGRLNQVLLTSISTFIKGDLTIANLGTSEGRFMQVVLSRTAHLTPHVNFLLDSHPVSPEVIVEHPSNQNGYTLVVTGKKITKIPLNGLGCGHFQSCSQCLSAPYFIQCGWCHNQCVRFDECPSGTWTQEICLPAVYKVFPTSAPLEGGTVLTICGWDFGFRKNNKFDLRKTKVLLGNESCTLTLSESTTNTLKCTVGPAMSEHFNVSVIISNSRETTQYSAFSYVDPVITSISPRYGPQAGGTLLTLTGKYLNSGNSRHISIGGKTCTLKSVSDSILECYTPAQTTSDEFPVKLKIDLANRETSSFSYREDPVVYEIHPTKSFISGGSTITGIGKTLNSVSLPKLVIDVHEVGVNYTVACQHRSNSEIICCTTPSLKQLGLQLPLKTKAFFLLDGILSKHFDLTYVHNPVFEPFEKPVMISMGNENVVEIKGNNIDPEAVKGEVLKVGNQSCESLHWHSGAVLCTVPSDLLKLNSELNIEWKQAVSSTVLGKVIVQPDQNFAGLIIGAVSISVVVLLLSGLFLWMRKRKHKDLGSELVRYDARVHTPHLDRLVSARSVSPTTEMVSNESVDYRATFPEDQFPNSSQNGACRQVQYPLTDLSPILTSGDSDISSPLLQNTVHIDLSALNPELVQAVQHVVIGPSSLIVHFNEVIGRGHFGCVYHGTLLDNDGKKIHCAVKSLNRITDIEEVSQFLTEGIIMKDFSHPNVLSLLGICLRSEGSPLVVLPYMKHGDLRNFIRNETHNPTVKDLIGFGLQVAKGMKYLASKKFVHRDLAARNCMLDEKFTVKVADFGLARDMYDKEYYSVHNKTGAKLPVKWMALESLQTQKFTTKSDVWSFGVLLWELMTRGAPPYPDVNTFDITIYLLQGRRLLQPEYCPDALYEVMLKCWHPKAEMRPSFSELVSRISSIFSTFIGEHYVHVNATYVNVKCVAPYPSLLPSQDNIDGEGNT
Assay: Inhibition of TPR-MET in mouse […] cells assessed as inhibition of cell proliferation at 1 uM after 72 hrs by SRB or MTT assay relative to control
Assay type: cell-based
# label = satisfied if inhibition >= 80% else not satisfied

Before answering, review these 3 worked examples.
1) c1ccc(-c2cnc3nnc(Cc4ccc5ncccc5c4)n3n2)cc1 : not satisfied
2) Oc1cccc(-c2cnc3nnc(Cc4ccc5ncccc5c4)n3n2)c1 : not satisfied
3) Brc1ccc(-c2cnc3nnc(Cc4ccc5ncccc5c4)n3n2)cc1 : not satisfied

Challenge: Does the compound `O=[N+]([O-])c1cccc(-c2cnc3nnc(Cc4ccc5ncccc5c4)n3n2)c1` have recorded inhibition that is 80% or more?
Response given: not satisfied

Challenge: Does the compound `CCn1cc(-c2cnc3nnc(Cc4ccc5ncccc5c4)n3n2)cn1` have recorded inhibition that is 80% or more?
Response given: satisfied

----------
Molecular target: TPR/MET fusion protein (Mus musculus) (UniProt P16056+F6ZDS4)
Experiment: Inhibition of TPR-MET in mouse […] cells assessed as inhibition of cell proliferation at 10 uM after 72 hrs by SRB or MTT assay relative to control
Assay type: cell-based
# label = yes if inhibition >= 90% else no

Before answering, review these 5 worked examples.
1. COc1cccc(-c2cnc3nnc(Cc4ccc5ncccc5c4)n3n2)c1 : no
2. Clc1ccc(-c2cnc3nnc(Cc4ccc5ncccc5c4)n3n2)cc1Cl : no
3. CCn1cc(-c2cnc3nnc(Cc4ccc5ncccc5c4)n3n2)cn1 : yes
4. c1ccc(COc2ccc(-c3cnc4nnc(Cc5c[nH]c6ccccc56)n4n3)cc2)cc1 : no
5. Clc1ccc(-c2cnc3nnc(Cc4ccc5ncccc5c4)n3n2)cc1 : no

Challenge: Does the compound `CC(C)(C)OC(=O)N1CCC(n2cc(-c3cnc4nnc(Cc5ccc6ncccc6c5)n4n3)cn2)CC1` have recorded inhibition that is 90% or more?
Response given: no

----------
inhibition values for the compounds below.
Biological target: TPR/MET fusion protein (Mus musculus) (UniProt P16056+F6ZDS4)
Experiment: Inhibition of TPR-MET in mouse […] cells assessed as inhibition of cell proliferation at 10 uM after 72 hrs by SRB or MTT assay relative to control
Assay type: cell-based

Worked set:
1) c1ccc(Cn2cc(-c3cnc4nnc(Cc5ccc6ncccc6c5)n4n3)cn2)cc1 : 89.5%
2) c1csc(-c2cnc3nnc(Cc4ccc5ncccc5c4)n3n2)c1 : 89.3%

Alright, here's another compound for you.
// recorded inhibition for `CCCn1cc(-c2cnc3nnc(Cc4ccc5ncccc5c4)n3n2)cn1` : 88.4%
